- run_description: Cmax in mouse blood at 5 mg/kg, po by HPLC/MS/MS analysis
- Assay type: ADME, organism-based
parameter_measured: Cmax
Hi, when you answer, please include the unit after the number. Thanks!

Retrieve Cmax measured for O=C(O)c1ccc(CN2CCC(CN[C@@H]3C[C@H]3c3ccccc3)CC2)cc1 [GSK2879552] and print it.
720 ng/mL

----------
- tested_target: UniProtKB P35367
- Sequence (P35367 whole entry): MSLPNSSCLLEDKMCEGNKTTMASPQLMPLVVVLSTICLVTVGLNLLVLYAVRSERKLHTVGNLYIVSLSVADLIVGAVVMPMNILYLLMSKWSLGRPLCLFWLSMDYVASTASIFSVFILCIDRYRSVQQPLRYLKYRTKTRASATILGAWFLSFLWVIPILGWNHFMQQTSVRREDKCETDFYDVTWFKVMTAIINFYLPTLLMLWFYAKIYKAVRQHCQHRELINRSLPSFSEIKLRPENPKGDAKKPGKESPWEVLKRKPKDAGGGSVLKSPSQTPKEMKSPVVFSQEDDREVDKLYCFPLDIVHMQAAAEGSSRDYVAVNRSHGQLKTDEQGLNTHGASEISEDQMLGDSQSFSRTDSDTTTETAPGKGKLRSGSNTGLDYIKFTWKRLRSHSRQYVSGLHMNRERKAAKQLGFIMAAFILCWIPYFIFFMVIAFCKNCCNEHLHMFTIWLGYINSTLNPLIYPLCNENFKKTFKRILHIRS
- run_description: Antagonist activity at Histamine H1 receptor (unknown origin)
EC50 overview

| compound | endpoint_value |
| --- | --- |
| O=C(O)c1ccc(CN2CCC(CN[C@@H]3C[C@H]3c3ccccc3)CC2)cc1 [GSK2879552] | > 40 µM |

Retrieve EC50 measured for c1ccc([C@@H]2C[C@H]2NC2CCNCC2)cc1 and print it.
> 25 µM

----------
- run_description: Cmax in mouse tumor at 5 mg/kg, po by HPLC/MS/MS analysis
- Format: ADME, organism-based, Neoplasm
parameter_measured: Cmax (ng/mL)
// units = ng/mL; emit number, no label

Retrieve Cmax measured for O=C(O)c1ccc(CN2CCC(CN[C@@H]3C[C@H]3c3ccccc3)CC2)cc1 and print it.
355

----------
pIC50 overview
- tested_target: Serotonin 3 (5-HT3) receptor
- run_description: Inhibition of 5-HT3 receptor (unknown origin)
pIC50: −log10 of the molar value.

| structure_string | pIC50 |
| --- | --- |
| c1ccc([C@@H]2C[C@H]2NC2CCNCC2)cc1 | < 4.52 |

Now for the molecule whose pIC50 we want.
Retrieve pIC50 measured for O=C(O)c1ccc(CN2CCC(CN[C@@H]3C[C@H]3c3ccccc3)CC2)cc1 and print it.
< 4.52

----------
- run_description: Tmax in mouse blood at 5 mg/kg, po by HPLC/MS/MS analysis
- Format: ADME, organism-based
parameter_measured: Tmax (min)
// units = min; emit number, no label

Retrieve Tmax measured for O=C(O)c1ccc(CN2CCC(CN[C@@H]3C[C@H]3c3ccccc3)CC2)cc1 and print it.
15

----------
IC50 overview
- tested_target: UniProt Q9Y6L6
- Sequence (Q9Y6L6 whole entry): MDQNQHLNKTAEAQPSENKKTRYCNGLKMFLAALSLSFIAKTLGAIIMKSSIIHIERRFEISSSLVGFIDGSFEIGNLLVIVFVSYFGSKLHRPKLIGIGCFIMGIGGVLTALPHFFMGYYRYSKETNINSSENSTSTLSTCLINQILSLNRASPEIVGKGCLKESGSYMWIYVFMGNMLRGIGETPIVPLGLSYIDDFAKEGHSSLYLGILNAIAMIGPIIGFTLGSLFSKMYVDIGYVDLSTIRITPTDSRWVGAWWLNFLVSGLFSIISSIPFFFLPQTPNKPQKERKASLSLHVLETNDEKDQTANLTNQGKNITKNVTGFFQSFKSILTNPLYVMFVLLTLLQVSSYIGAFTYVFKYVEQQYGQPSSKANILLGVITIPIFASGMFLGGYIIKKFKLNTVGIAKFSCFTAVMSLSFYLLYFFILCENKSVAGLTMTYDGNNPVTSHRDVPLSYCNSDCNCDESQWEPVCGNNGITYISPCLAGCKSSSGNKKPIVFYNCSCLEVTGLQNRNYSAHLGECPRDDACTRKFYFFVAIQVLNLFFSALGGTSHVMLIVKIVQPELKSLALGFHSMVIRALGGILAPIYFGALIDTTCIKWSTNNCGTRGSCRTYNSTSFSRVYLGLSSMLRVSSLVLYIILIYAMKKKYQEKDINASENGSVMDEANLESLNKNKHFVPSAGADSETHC

| structure_string | IC50 |
| --- | --- |
| O=C(O)c1ccc(CN2CCC(CN[C@@H]3C[C@H]3c3ccccc3)CC2)cc1 | > 30 µM |

Retrieve IC50 measured for c1ccc([C@@H]2C[C@H]2NC2CCNCC2)cc1 and print it.
> 30 µM
